In this section we review reported Affinity ELISA CPE mutant ratio (1:9, pH 6.0/7.4) values for a set of molecules.
- systemUnderTest: T1, Axl (Homo sapiens, UniProt P30530)
- T1 sequence (P30530 26-451 limits assumed): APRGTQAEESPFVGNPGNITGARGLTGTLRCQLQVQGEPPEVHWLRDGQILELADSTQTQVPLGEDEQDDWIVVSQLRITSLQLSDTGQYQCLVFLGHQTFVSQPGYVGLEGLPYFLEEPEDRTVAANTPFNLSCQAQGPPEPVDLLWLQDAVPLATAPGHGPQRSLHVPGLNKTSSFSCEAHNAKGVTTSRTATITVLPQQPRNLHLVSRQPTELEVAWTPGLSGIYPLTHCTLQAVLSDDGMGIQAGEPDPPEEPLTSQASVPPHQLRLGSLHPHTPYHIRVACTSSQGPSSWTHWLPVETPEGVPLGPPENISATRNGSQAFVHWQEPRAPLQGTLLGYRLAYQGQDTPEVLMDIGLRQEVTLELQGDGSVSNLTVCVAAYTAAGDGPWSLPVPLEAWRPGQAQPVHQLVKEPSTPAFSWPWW
- assayDetails: Affinity ELISA of CPE mutant antibodies for binding to Axl at pH 6.0 over pH 7.4
- reportedConditions: light chain variable region mutants; 1:9 dilution
testReadout: Affinity ELISA CPE mutant ratio (1:9, pH 6.0/7.4)

molecule	measuredNumber
LC-F092N (antibody, V domains shown) VH: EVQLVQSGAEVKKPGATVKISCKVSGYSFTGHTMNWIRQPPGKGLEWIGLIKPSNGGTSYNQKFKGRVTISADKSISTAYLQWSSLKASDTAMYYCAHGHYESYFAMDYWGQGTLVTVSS VL: DIQMTQSPSSLSASVGDRVTITCKASQDVSSAVAWYQQKPGQAPRLLIYWASTRHTGVPSRFSGSGSGTEFTLTISSLQPDDFATYYCQEHNSTPLTFGQGTKVEIK	2.004
LC-H091I (antibody, V domains shown) VH: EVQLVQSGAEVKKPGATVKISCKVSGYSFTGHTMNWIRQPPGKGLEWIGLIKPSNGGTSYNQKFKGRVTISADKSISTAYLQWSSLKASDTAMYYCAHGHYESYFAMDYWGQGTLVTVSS VL: DIQMTQSPSSLSASVGDRVTITCKASQDVSSAVAWYQQKPGQAPRLLIYWASTRHTGVPSRFSGSGSGTEFTLTISSLQPDDFATYYCQEIFSTPLTFGQGTKVEIK	2.154
